# system: Protein kinase C beta type (Homo sapiens) (UniProt P05771)
# Sequence (P05771 2-671 limits assumed): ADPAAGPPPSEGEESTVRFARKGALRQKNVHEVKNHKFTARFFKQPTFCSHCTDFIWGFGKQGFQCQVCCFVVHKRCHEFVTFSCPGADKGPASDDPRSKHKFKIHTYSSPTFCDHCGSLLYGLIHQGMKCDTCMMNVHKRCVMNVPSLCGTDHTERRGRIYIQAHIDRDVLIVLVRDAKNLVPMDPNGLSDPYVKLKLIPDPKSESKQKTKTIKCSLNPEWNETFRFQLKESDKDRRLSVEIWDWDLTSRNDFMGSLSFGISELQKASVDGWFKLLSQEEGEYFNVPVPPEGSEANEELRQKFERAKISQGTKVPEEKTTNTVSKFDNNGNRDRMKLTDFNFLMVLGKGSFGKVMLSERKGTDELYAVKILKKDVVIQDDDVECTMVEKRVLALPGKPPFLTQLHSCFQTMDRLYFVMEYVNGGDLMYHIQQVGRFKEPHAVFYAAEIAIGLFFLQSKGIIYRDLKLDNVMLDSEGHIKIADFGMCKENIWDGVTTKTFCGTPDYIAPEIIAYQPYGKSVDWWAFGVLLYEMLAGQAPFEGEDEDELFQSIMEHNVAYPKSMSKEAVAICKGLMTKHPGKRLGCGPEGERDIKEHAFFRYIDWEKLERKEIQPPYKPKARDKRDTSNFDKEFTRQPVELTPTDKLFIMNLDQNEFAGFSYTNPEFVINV
# experimentalConditions: at 0.1 µM
# Description: GSK_PKIS: PKC-beta2 (splice variant) mean inhibition at 0.1 uM [Nanosyn]
Measured inhibition values are reported for all entries that follow.
valueType: inhibition (%)

>  <chemicalSmiles>
CCn1c(-c2nonc2N)nc2c(C#CC(C)(C)O)ncc(OC3CCNCC3)c21

>  <system>
Protein kinase C beta type (Homo sapiens) (UniProt P05771)

>  <recordedValue>
19.7

$$$$
>  <chemicalSmiles>
COc1ccc(-c2cc3c(N)ncnc3o2)cc1

>  <system>
Protein kinase C beta type (Homo sapiens) (UniProt P05771)

>  <recordedValue>
0.45

$$$$
>  <chemicalSmiles>
COC(=O)c1sc(-n2cnc3cc(OC)c(OC)cc32)cc1OCc1ccccc1C(F)(F)F

>  <system>
Protein kinase C beta type (Homo sapiens) (UniProt P05771)

>  <recordedValue>
0.96

$$$$
>  <chemicalSmiles>
CS(=O)(=O)CCNCc1ccc(-c2ccc3ncnc(Nc4ccc(OCc5ccccc5)c(C(F)(F)F)c4)c3c2)o1

>  <system>
Protein kinase C beta type (Homo sapiens) (UniProt P05771)

>  <recordedValue>
1.11

$$$$
>  <chemicalSmiles>
CCNC(=O)O[C@H]1CN[C@H](C#Cc2cc3ncnc(Nc4ccc(OCc5cccc(F)c5)c(Cl)c4)c3s2)C1

>  <system>
Protein kinase C beta type (Homo sapiens) (UniProt P05771)

>  <recordedValue>
-0.74

$$$$
>  <chemicalSmiles>
c1ccc(COc2ccc(Nc3ncnc4ccc(-c5ccco5)cc34)cc2)cc1

>  <system>
Protein kinase C beta type (Homo sapiens) (UniProt P05771)

>  <recordedValue>
0.49

$$$$
>  <chemicalSmiles>
COc1cc2ncn(-c3cc(OCc4ccccc4C(F)(F)F)c(C(=O)N(C)C)s3)c2cc1OC

>  <system>
Protein kinase C beta type (Homo sapiens) (UniProt P05771)

>  <recordedValue>
0.03

$$$$
>  <chemicalSmiles>
COC(=O)Nc1nc2ccc(Oc3ccc(NC(=O)Nc4cccc(Cl)c4)cc3)cc2[nH]1

>  <system>
Protein kinase C beta type (Homo sapiens) (UniProt P05771)

>  <recordedValue>
0.5

$$$$
>  <chemicalSmiles>
COc1cccc(-c2c[nH]c3c(N/N=C/c4ccncc4)ncnc23)c1

>  <system>
Protein kinase C beta type (Homo sapiens) (UniProt P05771)

>  <recordedValue>
1.66

$$$$
>  <chemicalSmiles>
O=S(=O)(CCNCc1ccc(-c2ccc3ncnc(Nc4ccc(OCc5cccc(F)c5)c(Cl)c4)c3c2)o1)c1ccccc1

>  <system>
Protein kinase C beta type (Homo sapiens) (UniProt P05771)

>  <recordedValue>
2.03

$$$$
>  <chemicalSmiles>
CCCN1CCC(c2ccc(Nc3nc(Nc4cc(F)ccc4C(N)=O)c4cc[nH]c4n3)c(OC)c2)CC1

>  <system>
Protein kinase C beta type (Homo sapiens) (UniProt P05771)

>  <recordedValue>
1.54

$$$$
>  <chemicalSmiles>
Cc1cccc(Nc2ncc(-c3ccccc3)o2)c1

>  <system>
Protein kinase C beta type (Homo sapiens) (UniProt P05771)

>  <recordedValue>
2.39

$$$$
>  <chemicalSmiles>
c1ccc(-c2nc3n(c2-c2ccc4c(c2)OCO4)CCC3)nc1

>  <system>
Protein kinase C beta type (Homo sapiens) (UniProt P05771)

>  <recordedValue>
1.96

$$$$
>  <chemicalSmiles>
CNC(=O)c1cccc(C#Cc2cncnc2Nc2ccc(OCc3cccc(F)c3)c(Cl)c2)c1

>  <system>
Protein kinase C beta type (Homo sapiens) (UniProt P05771)

>  <recordedValue>
-3.35

$$$$
>  <chemicalSmiles>
CC(=O)Nc1cccc(C#Cc2cncnc2Nc2ccc(OCc3cccc(F)c3)c(Cl)c2)c1

>  <system>
Protein kinase C beta type (Homo sapiens) (UniProt P05771)

>  <recordedValue>
1.6

$$$$
>  <chemicalSmiles>
Clc1ccc(-c2nn3ncccc3c2-c2ccnc(Nc3ccccc3)n2)cc1

>  <system>
Protein kinase C beta type (Homo sapiens) (UniProt P05771)

>  <recordedValue>
-0.06

$$$$
>  <chemicalSmiles>
CCCN(CCS(C)(=O)=O)Cc1ccc(-c2ccc3ncnc(Nc4ccc(OCc5cccc(F)c5)c(Cl)c4)c3c2)o1

>  <system>
Protein kinase C beta type (Homo sapiens) (UniProt P05771)

>  <recordedValue>
1.13

$$$$
>  <chemicalSmiles>
CNC(=O)c1cncc(/C=C/c2ccccc2Cl)c1

>  <system>
Protein kinase C beta type (Homo sapiens) (UniProt P05771)

>  <recordedValue>
2.46

$$$$
>  <chemicalSmiles>
O=C(O[C@H]1CN[C@H](C#Cc2cc3ncnc(Nc4ccc(Cc5ccccc5)cc4)c3s2)C1)N1CCOCC1

>  <system>
Protein kinase C beta type (Homo sapiens) (UniProt P05771)

>  <recordedValue>
2.68

$$$$
>  <chemicalSmiles>
c1cc(-c2cnn3nc(N4CCOCC4)ccc23)nc(NC2CC2)n1

>  <system>
Protein kinase C beta type (Homo sapiens) (UniProt P05771);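 note: measured against the PKC-beta2 splice variant, with values reported as mean percent inhibition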

>  <recordedValue>
0.87

$$$$

---

# system: Glycogen synthase kinase-3 alpha (Homo sapiens) (UniProt P49840);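 note: each figure is a mean percent inhibition of GSK3A activity, from a screen of the GSK published kinase inhibitor set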
# Sequence (P49840 2-483 limits assumed): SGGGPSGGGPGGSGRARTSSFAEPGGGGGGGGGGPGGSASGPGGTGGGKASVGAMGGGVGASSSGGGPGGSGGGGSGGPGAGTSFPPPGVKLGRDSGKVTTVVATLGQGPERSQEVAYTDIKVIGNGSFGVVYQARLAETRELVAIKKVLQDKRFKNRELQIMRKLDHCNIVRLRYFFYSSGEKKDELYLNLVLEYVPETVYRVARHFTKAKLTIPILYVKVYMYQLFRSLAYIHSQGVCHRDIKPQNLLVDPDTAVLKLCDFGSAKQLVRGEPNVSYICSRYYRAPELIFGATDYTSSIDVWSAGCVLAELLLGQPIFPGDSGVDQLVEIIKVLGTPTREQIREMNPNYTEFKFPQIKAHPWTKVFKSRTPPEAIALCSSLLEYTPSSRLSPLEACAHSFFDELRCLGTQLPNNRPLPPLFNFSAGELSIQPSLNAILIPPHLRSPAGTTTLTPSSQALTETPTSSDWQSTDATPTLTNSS
# experimentalConditions: at 1 µM
Returns one of satisfied or not satisfied; satisfied when inhibition is >= 10%.

>  <compound>
Clc1ccc(-c2nn3ncccc3c2-c2ccnc(Nc3ccccc3)n2)cc1

>  <cat>
satisfied

$$$$
>  <compound>
COc1ccc(-c2cc3c(N)ncnc3o2)cc1

>  <cat>
not satisfied

$$$$
>  <compound>
CNC(=O)c1cccc(C#Cc2cncnc2Nc2ccc(OCc3cccc(F)c3)c(Cl)c2)c1

>  <cat>
not satisfied

$$$$
>  <compound>
COC(=O)Nc1nc2ccc(S(=O)(=O)c3ccc(NC(=O)Nc4cc(C(F)(F)F)ccc4F)cc3)cc2[nH]1

>  <cat>
not satisfied

$$$$
>  <compound>
CCN(CC)S(=O)(=O)c1ccc(OC)c(Nc2ncc(-c3ccccc3)o2)c1

>  <cat>
not satisfied

$$$$
>  <compound>
CCn1c(-c2nonc2N)nc2ccccc21

>  <cat>
satisfied

$$$$
>  <compound>
CCn1c(-c2nonc2N)nc2c(C#CC(C)(C)O)nc(OC[C@H](N)c3ccccc3)cc21

>  <cat>
satisfied

$$$$
>  <compound>
COc1cccc(-n2ncc3c(N/N=C/c4ccc(F)cc4)ncnc32)c1

>  <cat>
satisfied

$$$$
>  <compound>
NS(=O)(=O)c1ccc(N/N=C2\C(=O)Nc3ccc4ncccc4c32)cc1

>  <cat>
satisfied

$$$$
>  <compound>
COC(=O)Nc1nc2ccc(Oc3ccc(NC(=O)Nc4cccc(Cl)c4)cc3)cc2[nH]1

>  <cat>
not satisfied

$$$$
>  <compound>
CCCN(CCS(C)(=O)=O)Cc1ccc(-c2ccc3ncnc(Nc4ccc(OCc5cccc(F)c5)c(Cl)c4)c3c2)o1

>  <cat>
not satisfied

$$$$
>  <compound>
Cc1ccc(O)cc1Nc1ccnc2cc(-c3ccccn3)ccc12

>  <cat>
not satisfied

$$$$
>  <compound>
Cc1cccc2c1NC(=O)/C2=N\Nc1ccc(S(N)(=O)=O)cc1

>  <cat>
not satisfied

$$$$
>  <compound>
CCN1CCC(CC(=O)Nc2n[nH]c3nnc(-c4cccc(F)c4F)cc23)CC1

>  <cat>
satisfied

$$$$
>  <compound>
Fc1ccc(-c2nn3ccccc3c2-c2ccncc2)cc1

>  <cat>
not satisfied

$$$$
>  <compound>
COc1cc(/C=N/Nc2ncnc3[nH]ncc23)ccc1O

>  <cat>
satisfied

$$$$
>  <compound>
CC(=O)Nc1cccc(C#Cc2cncnc2Nc2ccc(OCc3cccc(F)c3)c(Cl)c2)c1

>  <cat>
not satisfied

$$$$
>  <compound>
[O-][S+]1CCN(Cc2ccc(-c3ccc4ncnc(Nc5ccc(OCc6cccc(F)c6)c(Cl)c5)c4c3)o2)CC1

>  <cat>
not satisfied

$$$$
>  <compound>
Cc1cccc(Nc2ncc(-c3ccccc3)o2)c1

>  <cat>
satisfied

$$$$
>  <compound>
CC(C)COC(=O)c1ccc2c(c1)/C(=C/Nc1ccc(S(N)(=O)=O)cc1)C(=O)N2

>  <cat>
satisfied

$$$$
>  <compound>
O=S(=O)(CCNCc1ccc(-c2ccc3ncnc(Nc4ccc(OCc5cccc(F)c5)c(Cl)c4)c3c2)o1)c1ccccc1

>  <cat>
not satisfied

$$$$
>  <compound>
Nc1ncc(-c2cccc(S(N)(=O)=O)c2)c2scc(-c3ccc(F)c(Cl)c3)c12

>  <cat>
not satisfied

$$$$
>  <compound>
COc1cc(Nc2nccc(Nc3ccc4c(C)n[nH]c4c3)n2)cc(OC)c1OC

>  <cat>
satisfied

$$$$
>  <compound>
COc1cc(N2CCN(C(C)C)CC2)ccc1Nc1nc(Nc2ccc(F)cc2C(N)=O)c2cc[nH]c2n1

>  <cat>
not satisfied

$$$$
>  <compound>
N#Cc1c(NC(=O)CN2CCOCC2)sc2c1CCCC2

>  <cat>
not satisfied

$$$$
>  <compound>
COc1ccc2c(-c3ccnc(Nc4cccc(OC(F)(F)F)c4)n3)cnn2n1

>  <cat>
satisfied

$$$$
>  <compound>
NC(=O)c1sc(-n2cnc3ccc(C(F)(F)F)cc32)cc1OCc1ccccc1Br

>  <cat>
not satisfied

$$$$
>  <compound>
CNC(=O)c1cc(-c2ccc(F)cc2)cc(-c2ccc(S(=O)(=O)N3CCCC3)cc2)c1N

>  <cat>
not satisfied

$$$$
>  <compound>
COc1cc2c(cc1Nc1nc(Nc3ccsc3C(N)=O)c3cc[nH]c3n1)N(C(=O)CN(C)C)CCC2(C)C

>  <cat>
satisfied

$$$$
>  <compound>
COc1ccc(-c2cc(-c3c[nH]nc3-c3ccccn3)ccn2)cc1

>  <cat>
not satisfied

$$$$
>  <compound>
CCCN1CCC(c2ccc(Nc3nc(Nc4cc(F)ccc4C(N)=O)c4cc[nH]c4n3)c(OC)c2)CC1

>  <cat>
not satisfied

$$$$
>  <compound>
CC1=C(C(=O)Nc2cc(Cl)c3[nH]ncc3c2)C(c2ccc(C(F)(F)F)cc2)CC(=O)N1 (centres undefined)

>  <cat>
not satisfied

$$$$
>  <compound>
CC(C)(CO)CNC(=O)c1ccc2c(c1)/C(=N/Nc1ccc(S(N)(=O)=O)cc1)C(=O)N2

>  <cat>
satisfied

$$$$
>  <compound>
CCNC(=O)O[C@H]1CN[C@H](C#Cc2cc3ncnc(Nc4ccc(OCc5cccc(F)c5)c(Cl)c4)c3s2)C1

>  <cat>
not satisfied

$$$$
